# procedure.details: yeast display, Sf9 membrane polyspecificity reagent, FACS + sequencing; frameworks hold sequencing errors
measured.property: polyreactivity (PSR sort gate)

Worked examples follow.
sequence.record	polyreactivity (PSR sort gate)
QVQLVESGGGLVQAGGSLRLSCAASGSTFEYYAMGWYRQAPGKERELVAAITGSGDNTYYADSVKGRFTISRDNAKNTVYLQMNSLKPEDTAVYYCAATMRVKGQYGRMYYWGQGTQVTVSS	high polyreactivity
QVQLVESGGGLVQAGGSLRLSCAASGFIFYSYAMGWYRQAPGKERELVAAIDWDDGTTYYADSVKGRFTISRDNAKNTVYLQMNSLNPEDTAVYYCAAESYYGAYDYWGQGTQVTVSS	high polyreactivity
QVQLVESGGGLVQAGGSLRLSCAASGFTFYHNAMGWYRHAPGKERELVATITARGGRTYYADSVKGRFTISRDNAKNTVYLQMISLKPEDTAVYYCNVKASRGYTYEYDYWGQGTQVTVSS	high polyreactivity
QVQLVESGGGLVQAGGSIRLSCADSGIIFQANAMGWYRQAPRKERELVAGISRGSSTNYADSVKGRFTISLDNAKNTVYLQMNSLKPEDTAVYYCSAGFYYRPFYGSSHSYGYWGQGTQVTVSS	low polyreactivity

Here is the next item to consider.
## Input Name the reported polyreactivity (PSR sort gate) value associated with the sequence QVQLVESVGGLVQAGGRLRLSSAASGFTFAFHAMGSYRQAPGKERELVAAISCSGVSTYYADSVKWRFTLSRDNEKNTDYLQMNSLKPEDTAVKYCAVGAVASSHRAGGKRHEYWGQGTQVTLSS
## Output low polyreactivity

* * *

# procedure.details: yeast display, Sf9 membrane polyspecificity reagent, FACS + sequencing; frameworks hold sequencing errors
measured.property: polyreactivity (PSR sort gate)

Worked examples follow.
sequence.record	measured.property	measured.value
QVQLVESGGGLVQAGGSLRLSCAASGSTFWAYAMGWYRQAPGKERELVAAITTGGGRTFYADSVKGRFTISRDNAKNTVYLQMNSLKPEDTAVYYCAAVSQSYRMYYWGEGTQVTVSS	polyreactivity (PSR sort gate)	low polyreactivity
QVHLVESGGGLVQAGGSLRLSCAASGRTIGVNAMGWYRQPHGTERELVAAITKDSGATNYADSVKGLFTISRDNAKITVYFQMNSLKADDTAVYYCAARVWVRGYYWGQGTQVTVSS	polyreactivity (PSR sort gate)	low polyreactivity
QVQLVESGGGLVQAGGSLRLSCAASGRTFGYNAMGWYRQAPGKERELVAAITWSGGSTYYADSVKGRFTISRDNAKNTVYLQMNSLKPEDTAVYYCNAYQRLSRAYGYWGQGTQVTVSS	polyreactivity (PSR sort gate)	high polyreactivity
QFQLVESGGGLVQAGGSLRLSCAASGTFGSYAMGWYRHAPGKERELVASISGTGGDTYYADSVKGRFTISRDNAKNTVYLQMNSLKPEDTAVYYCAARWSRYWYLGSWLYDYWGQGSQVTVSS	polyreactivity (PSR sort gate)	high polyreactivity

Here is the next item to consider.
## Input Name the reported polyreactivity (PSR sort gate) value associated with the sequence QVQLVESGGGLVQAGGSLRLSCAASGYTFRYYAMGWYRQAPGKERELVARITGRAGSTYYADSVKGRFTISRDNAKNTVYLQMNSLKPEDTAVYYCAAQPAHPRRYDYWGQGTQVTVSS
## Output high polyreactivity

* * *

# procedure.details: yeast display, Sf9 membrane polyspecificity reagent, FACS + sequencing; frameworks hold sequencing errors
measured.property: polyreactivity (PSR sort gate)

Worked examples follow.
>>> print(df.to_string())
                            sequence_record               measured_property       measured_value
0  QVQLVESGGGLVQAGGSLRLSCAASGRTFHKYAMGWYRQAPGKEWELVAAISNGGRTYYADSVKGRFTISRDNAKNTVYLQMNSLKPEDTAVYYCNADRTWKGRQYDYWGQGTQVTVSS  polyreactivity (PSR sort gate)  high polyreactivity
1  QVQLVESGGGLVQAGGSLRLSCAASGSTFINYAMGWYREAPGKERELVAAISKGGGSTYYADSVKGRFTISRDTAKNTVYLQINSLKPEDTAVYDCARARSGGSHREYYWGQGTQVTVSS  polyreactivity (PSR sort gate)  high polyreactivity
2  QVQLQESGGVQAGGSLRLSCAASGYISRSDVMGWYRQAPGKERELVATINNGTITYYADSVKGRFTISRDNATNTVYLQMNSLKPEDTAVHYCAVVQSDTDSLYYWGQGTQVTVSS  polyreactivity (PSR sort gate)   low polyreactivity
3  QVQLVESGGGLVQAGGSLRLSCAASGIIFPINAMGWYRPAPGKERELVAGIDESGGGTYYADSVKGRFTISRDNAKNTLYLQMNSLKPEDTAVYYCAAVTLAPRAYDYWGQGTEVTVSS  polyreactivity (PSR sort gate)   low polyreactivity

## Input Name the reported polyreactivity (PSR sort gate) value associated with the sequence QVQLVESGGGLVQAGGSLRLSCAASGRIFSRYTMGWYRQAPGKERELVAAISYRGGSTYYADSVKGRFTISRDNAKNTVYLQMNSLKPEDTAVYYCAARVQAIYRYDYWGQGTQVTVSS
## Output high polyreactivity

* * *

# procedure.details: yeast display, Sf9 membrane polyspecificity reagent, FACS + sequencing; frameworks hold sequencing errors
measured.property: polyreactivity (PSR sort gate)

Worked examples follow.
sequence.record	polyreactivity (PSR sort gate)
QVQLVESGGGLVQAGGSLRLICAASGSIFYNNDMGWYRQAPGKERELVAAINWNGGSTYYADSVKGRFTISRDNAKNTVYLQMNSLKPEDTAVYYCNAEPFWYNYGYDDDYWGQGTQVTVSS	high polyreactivity
QVQLVETGGGLVHAGGSLRLSSAASGRTFVENDMGWYRQAPGKERELVAAITYRGGRTFYADSVKGSFTISRDNAKNTVYLQMNSRKPEDTAVYSCNAVRRTGGHGVYWGQGTQVTVSS	high polyreactivity
QVQLVESGGGLVQAGGSLRLSCAASGFTFIRNGMGWYRQAPGKERELVAAINSRGGNTYYADSVKGRFTISRDNAKNTVYLQMNSLKPEDTAVYYCNRVVQRWSTQYGYWGQGTQVTVSS	high polyreactivity
QVQLVESGGGLVQAGGSLRLSCAASGFTFEYNDMGWYRQAPGKERELVASISYDSDSTYYAVSVKGRFTISRDNAKNTVYLQMNSLKPEDTAVYYCNAGSSYHEYGYWGQGTQVTVSS	high polyreactivity
QVQLVESGGGLVQAGGSLSLSCAASGRTFSSYVMGWYRPAPGNERELVAAITQSSSRTYYADSVKGRFTISRDNAKNTVYLQMNSLKRVYTAVYYCNAALYPYLQYYYWGLGTQVTVSS	low polyreactivity

## Input Name the reported polyreactivity (PSR sort gate) value associated with the sequence QVQLVESGGGLVQAGGSLRLSCAASGRTFYSYTMGWYRQAPGKDRELVAAITRSGGRTYYADSVKGRFTISRDNAKNTVYLQMNSLKPDDTAVYYCAKGWVSYWRYKNEYWGQGTQVTVSS
## Output high polyreactivity

## Input Name the reported polyreactivity (PSR sort gate) value associated with the sequence QVQLVESGGGLVQAGGSLRLSCAASGLIFSPYAMGWYRQAPGKEREFVAAITSRGGTYYADSVKGRFTISRDNAKNTVYLQMNSLKPEDTAVYYCAAKSLYSKRQQYEYWGQGTQVTVSS
## Output low polyreactivity

* * *

# procedure.details: yeast display, Sf9 membrane polyspecificity reagent, FACS + sequencing; frameworks hold sequencing errors
measured.property: polyreactivity (PSR sort gate)

Worked examples follow.
sequence.record	measured.property	measured.value
QVQLVESVGGLVQAGGSLRLSCAASGRIFYRYGMGWYRQAPGKERELVASITRGGSTYYADSVKGRFTISRDNAKNTVYLQMNSLKPEDTAVYYCATKSSAGYDYWGQGTQVTVSS	polyreactivity (PSR sort gate)	low polyreactivity
QVQLVESGGGLVQAGGSLRLSCAASGSIFFFYALGWYRQAPGNERELVAAISKSPSSTYYADSVKGRFTISRDNAKKTVYVQMNSLKPEDTAVYYCNTGYSGIQYYYWGQGTQVTVSS	polyreactivity (PSR sort gate)	low polyreactivity
QVQLVESGGGLVQAGGSLRLSCAASGSTLSKYGMGWYRQAPGKERDLVAAISYSSGSTYYADSVKGRFTISRDNAKNTVYLEMNSLKPEDTAVDYCAADRFRSLHYWTYDYWGQGTQVTVSS	polyreactivity (PSR sort gate)	high polyreactivity
QVQLVESGGGLVQAGSSLRLSSAASGSIIGVNAKGRYRQAAGKERELVAAISSTGGSTYYADSVKGRYTISRDNAKNTVFLKMNSLKPDDTAVYYCNTDYSKSIGDGYSGFDYWGQGTQLTVSS	polyreactivity (PSR sort gate)	low polyreactivity
QVQLVESGGGLVQAGGSLRLSCAASGRTFHYNAMGWYRQAPGKERELVAAISRDGGSTDYADSVKGRFTISRDNAKNTVYLQMNSLKPEDTAVYYCAAPIGKQEFSRDYDYWGQGTQVTVSS	polyreactivity (PSR sort gate)	low polyreactivity

## Input Name the reported polyreactivity (PSR sort gate) value associated with the sequence QVQLVESGGGLVQAGGSLRLSCAASGSIFPLYDMGWYRPAPGKERELVAGISSGGSTNYADSVKGRFTISRDNAKNTVYLQMNSLKPEDTAVYYCAATGSSRYGYWGQGTQVTVSS
## Output low polyreactivity

## Input Name the reported polyreactivity (PSR sort gate) value associated with the sequence QVQLVESGGGLVQAGGSHRLSCAASGRIFVIYAMGWNRQAPGKERELVALITRGSSTYADSVKGRFTISRDNAKNTVYLQMYSLKPEDTAVYYCAARRYVTVDYDYWGQGTQVTVSS
## Output high polyreactivity
